Parameter: log10(IC50). Scope: all listed entries.
Target: uterine OT receptors (Rattus norvegicus)
Construct: from tissue; host or cells: uterus of DES-treated rats, crude membranes
Sequence (P70536 whole entry): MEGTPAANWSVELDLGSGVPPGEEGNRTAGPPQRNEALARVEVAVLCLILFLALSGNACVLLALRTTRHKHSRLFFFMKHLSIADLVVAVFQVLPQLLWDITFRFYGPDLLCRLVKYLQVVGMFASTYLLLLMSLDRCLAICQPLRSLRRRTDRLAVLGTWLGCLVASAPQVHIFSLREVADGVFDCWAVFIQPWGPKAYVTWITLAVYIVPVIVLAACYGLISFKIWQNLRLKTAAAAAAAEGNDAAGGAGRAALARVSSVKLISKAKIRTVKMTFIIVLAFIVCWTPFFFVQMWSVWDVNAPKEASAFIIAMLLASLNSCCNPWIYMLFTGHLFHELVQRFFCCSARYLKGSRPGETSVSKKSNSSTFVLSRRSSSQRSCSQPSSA
Assay: [3H]OT radioligand binding to uterine OT receptors, crude membrane preparation
Details: uteri of DES-treated rats; 1 nM [3H]OT; 60 min, 22° C.; inhibits specific binding by 50%; read-out: Receptor Binding Results IC50 (nM) [3H]OT
Experimental: The high affinity binding of [^3 H]OT ([tyrosyl, 3,5-[^3 H]OT; 30-60 Ci/mmol; New England Nuclear Boston, Mass.) to uterine OT receptors was based on an assay* using a crude membrane preparation of uteri taken from diethylstilbestrol dipropionate (DES)-treated (0.3 mg/kg, ip; 18-24) rats. Competition studies were conducted at equilibrium (60 min; 22° C.) using 1 nM [^3 H]OT in the following assay buffer: 50 mM Tris-HCl, 5 mM MgCl2, and 0.1% BSA, pH 7.4. […]
*1 amine or outer side, *2 acyl side, *3 side chain or, on linkers, in order; H or OH if unused. Where a SMILES comes first, the peptide text is derived from it. [ ]: non-standard residue; d: D form. X12 = C=CCSC(=N[C@H](C(=O)[*:2])[C@@H](C)CC)[C@@H](Cc1ccccc1)N[*:1]; X14 = CCOC(=O)C(C(=O)OCC)C1C=NN([*:1])[C@H](C(=O)[*:2])C1; X2 = O=C([C@@H]1[C@@H](O)[C@@H](O)C=NN1[*:1])[*:2]; X6 = CN(C)C[C@H]1C=NN([*:1])[C@H](C(=O)[*:2])C1; X8 = O=C([C@@H]1CC(N2CCCC2)C=NN1[*:1])[*:2]; Piz(1,6-dehydro) = O=C(O)[C@@H]1CCC=NN1; dPiz(1,6-dehydro) = O=C(O)[C@H]1CCC=NN1; dNMeCha = CN[C@H](CC1CCCCC1)C(=O)O; X5 = O=C([C@@H]1CCCNN1[*:1])[*:2]; X1 = O=C([C@H]1CCCNN1[*:1])[*:2]; dNMeF = CN[C@H](Cc1ccccc1)C(=O)O; dCha = N[C@H](CC1CCCCC1)C(=O)O
endpoint: log10(IC50) (log10 of the value in nM)

compound: CC[C@H](C)[C@@H]1NC(=O)[C@@H](Cc2ccccc2)NC(=O)[C@@H]2CCCN2C(=O)[C@@H](Cc2ccccc2)N(C)C(=O)[C@@H]2[C@@H](O)[C@@H](O)C=NN2C(=O)[C@H]2CCCNN2C1=O [Example 14] (cyclo(I[X1][X2][dNMeF]P[dF]))
measured: 2.46

compound: C=C1C=NN2C(=O)[C@H]3CCC=NN3C(=O)[C@H]([C@@H](C)CC)NC(=S)[C@@H](Cc3ccccc3)NC(=O)[C@@H]3CCCN3C(=O)[C@@H](Cc3ccccc3)N(C)C(=O)[C@@H]2C1
measured: 0.56

compound: CC[C@H](C)[C@@H]1NC(=O)[C@@H](CC2CCCCC2)NC(=O)[C@@H]2CCCN2C(=O)[C@@H](CC2CCCCC2)N(C)C(=O)[C@@H]2CCCNN2C(=O)[C@H]2CCCNN2C1=O [Example 1] (cyclo(I[X1][X5][dNMeCha]P[dCha]))
measured: 2.86

compound: CC[C@H](C)[C@@H]1NC(=O)[C@@H](CC2CCCCC2)NC(=O)[C@@H]2CCCN2C(=O)[C@@H](CC2CCCCC2)N(C)C(=O)[C@@H]2CCC=NN2C(=O)[C@H]2CCC=NN2C1=O [Example 2] (cyclo(I[dPiz(1,6-dehydro)][Piz(1,6-dehydro)][dNMeCha]P[dCha]))
measured: 1.97

compound: CC[C@H](C)[C@@H]1NC[C@@H](Cc2ccccc2)NC(=O)[C@@H]2CCCN2C(=O)[C@@H](Cc2ccccc2)N(C)C(=O)[C@@H]2CCC=NN2C(=O)[C@H]2CCC=NN2C1=O
measured: 4.48

compound: CCOC(=O)C(C(=O)OCC)C1C=NN2C(=O)[C@H]3CCC=NN3C(=O)[C@H]([C@@H](C)CC)NC(=O)[C@@H](Cc3ccccc3)NC(=O)[C@@H]3CCCN3C(=O)[C@@H](Cc3ccccc3)N(C)C(=O)[C@@H]2C1 (stereo partly drawn) [Example 17] (cyclo(I[dPiz(1,6-dehydro)][X14][dNMeF]P[dF]))
measured: 2.30

compound: C=CCSC1=N[C@@H]([C@@H](C)CC)C(=O)N2N=CCC[C@@H]2C(=O)N2N=CCC[C@H]2C(=O)N(C)[C@H](Cc2ccccc2)C(=O)N2CCC[C@H]2C(=O)N[C@@H]1Cc1ccccc1 [Example 12] (cyclo(P[X12][dPiz(1,6-dehydro)][Piz(1,6-dehydro)][dNMeF]))
measured: 2.85

compound: CC[C@H](C)[C@@H]1NC(=O)[C@@H](Cc2ccccc2)NC(=O)[C@@H]2CCCN2C(=O)[C@@H](Cc2ccccc2)N(C)C(=O)[C@@H]2CC(N3CCCC3)C=NN2C(=O)[C@H]2CCC=NN2C1=O (stereo partly drawn) [Example 15] (cyclo(I[dPiz(1,6-dehydro)][X8][dNMeF]P[dF]))
measured: 2.78

compound: CC[C@H](C)[C@@H]1NC(=O)[C@@H](Cc2ccccc2)NC(=O)[C@@H]2CCCN2C(=O)[C@@H](Cc2ccccc2)N(C)C(=O)[C@@H]2C[C@@H](CN(C)C)C=NN2C(=O)[C@H]2CCC=NN2C1=O [Example 18] (cyclo(I[dPiz(1,6-dehydro)][X6][dNMeF]P[dF]))
measured: 0.89
